# system: Human CD137 ECD (human)
# Sequence (chain, as listed by the source limits assumed): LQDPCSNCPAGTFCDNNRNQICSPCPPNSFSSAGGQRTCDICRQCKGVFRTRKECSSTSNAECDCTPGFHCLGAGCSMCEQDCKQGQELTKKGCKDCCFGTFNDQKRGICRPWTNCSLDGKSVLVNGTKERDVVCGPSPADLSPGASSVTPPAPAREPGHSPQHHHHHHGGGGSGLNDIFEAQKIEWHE
# experiment notes: single mutant vs template dBBDu183H
endpoint: fold change of affinity (fold)
Give the quantity in fold, number only.

Just so you know, measured fold change of affinity for H183/L072 VH D52aG (antibody, name in Kabat numbering, V domains shown) VH: QVQLVESGGGLVQPGRSLRLSCAASGFTFSNAWMHWVRQAPGKGLEWVAQIKGKGNAYAAYYAPSVKGRFTISRDDSKNSIYLQMNSLKTEDTAVYYCHYVHYASASTVLPAFGVDAWGQGTTVTVSS VL: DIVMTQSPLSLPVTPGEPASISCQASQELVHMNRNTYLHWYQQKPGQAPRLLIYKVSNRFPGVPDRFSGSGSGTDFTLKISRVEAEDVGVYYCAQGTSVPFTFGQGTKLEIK came out at 0
